- target: T1, ZFP SBS#225 (synthetic, UniProt P08047)
- T1 chain: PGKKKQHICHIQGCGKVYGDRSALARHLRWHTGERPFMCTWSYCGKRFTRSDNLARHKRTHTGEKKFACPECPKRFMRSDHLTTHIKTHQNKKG
- run-description: EMSA
- measurement-conditions: tags: MBP fusion
test-readout: pKd
On this scale, pKd is minus log10 of a concentration expressed in M (mol/L).

In: Provide one value: measured pKd of TGGGAGGTC (dsDNA) DNA 1: TGGGAGGTC DNA 2: GACCTCCCA
Out: 8.22
